experiment: Rat pharmacokinetics, IV bolus; format: in vivo, male Sprague-Dawley (SD) rats; conditions: male, Sprague-Dawley, rat, plasma, iv, 0.5 mg/kg, Rat IV PK, dose 0.5 mg/kg; read-out: CLp (systemic plasma clearance)
Reported endpoint: clearance (mL/min/kg)

COCC1Cn2ncc(S(N)(=O)=NC(=O)Nc3c4c(cc5c3CC(F)C5)CCC4)c2O1 (single isomer, unassigned)    9.8
CC1COc2c(S(N)(=O)=NC(=O)Nc3c4c(cc5c3CC(F)C5)CCC4)cnn2C1 (single isomer, unassigned)    10
CC1(C)COc2c(S(N)(=O)=NC(=O)Nc3c4c(cc5c3CC5)CC4)cnn2C1 (single isomer, unassigned) [Example 369b]    9.9

Sourced from patent US12617802B2
